These measurements were taken from the supplement of paper PMC7411054.

The reader will find reported phenotypically active values listed item by item below.
Tested on: HepG2-TP53BP1-CLTA
assayComment: phenotypically active (imaging signature differs from DMSO and reproducible) at any of 0.3-9 uM (binary (1 = active, 0 = inactive)); higher = active
setupConditions: treatment time: 24 h
Where a name gives a salt, the structure may show the parent alone.

{"molecule": "COc1ccc(Cl)cc1NC(=O)Nc1cc(C)nc2ccccc12", "phenotypically active": 1}
{"molecule": "CCC(CC)(NC(=O)C(C)C)C(=O)N[C@@H](CCCNC(=N)N)C(=O)NC1(C(=O)NC(c2ccc(F)cc2)c2ccc(F)cc2)CCCC1", "phenotypically active": 0}
{"molecule": "CCOC(=O)Nc1ccc2c(c1)N(C(=O)CCN1CCOCC1)c1ccccc1S2", "phenotypically active": 0}
{"molecule": "CC(CN(C)C)CN1c2ccccc2Sc2ccccc21.CC(CN(C)C)CN1c2ccccc2Sc2ccccc21 (stereo unspecified)", "phenotypically active": 1}
{"molecule": "CCN(CC)CC(=O)Nc1c(C)cccc1C", "phenotypically active": 0}
{"molecule": "Cc1ccc(-c2c(-c3nn(C)c4ncnc(N5CC[C@H](N6CCCCC6)C5)c34)cnn2C)cc1", "phenotypically active": 0}
{"molecule": "COc1ccc2c(Oc3ccc(NC(=O)c4c(C)n(CC(C)(C)O)n(-c5ccccc5)c4=O)nc3)ccnc2c1", "phenotypically active": 1}
{"molecule": "O=C(/C=C/c1ccc(O)cc1)c1ccc(O)cc1O", "phenotypically active": 0}
{"molecule": "Cn1cc(-c2[nH]c3cc(NC(=O)[C@H](N)C4CCCCC4)cc4c3c2C=NNC4=O)cn1", "phenotypically active": 1}
{"molecule": "CC(C)NCCCC1(C(N)=O)c2ccccc2-c2ccccc21 [indecainide]", "phenotypically active": 0}
{"molecule": "CC(C)C[C@H](NC(=O)OCC1c2ccccc2-c2ccccc21)C(=O)O", "phenotypically active": 0}
{"molecule": "COc1cc(Br)c(Nc2nc(-c3c(C)nc4ncccn34)cs2)c(Br)c1", "phenotypically active": 1}
{"molecule": "Cc1ccc(-c2csc3ncnc(SCCC(=O)O)c23)cc1", "phenotypically active": 0}
{"molecule": "CC(=O)[C@H]1CC[C@H]2[C@@H]3C=CC4=CC(=O)CC[C@@]4(C)[C@@H]3CC[C@]12C", "phenotypically active": 0}
{"molecule": "O=C(CCCCCCC(=O)Nc1ccc([C@H]2O[C@@H](CSc3nc(-c4ccccc4)c(-c4ccccc4)o3)C[C@@H](c3ccc(CO)cc3)O2)cc1)NO", "phenotypically active": 0}
{"molecule": "CC1(C)[C@@H](O)CC[C@]2(C)[C@H]3C(=O)C=C4[C@@H]5C[C@@](C)(C(=O)O)CC[C@]5(C)CC[C@@]4(C)[C@]3(C)CC[C@@H]12", "phenotypically active": 0}
{"molecule": "Nc1nnc(-c2cccc(Cl)c2Cl)c(N)n1", "phenotypically active": 0}
{"molecule": "Cc1cc(Nc2nc(N[C@@H](C)c3ncc(F)cn3)ncc2Cl)n[nH]1", "phenotypically active": 1}
{"molecule": "Cc1ccc(NC(=O)CCCCCC(=O)Nc2ccccc2N)cc1", "phenotypically active": 1}
{"molecule": "C#C[C@]1(O)CC[C@H]2[C@@H]3CCc4cc(OC5CCCC5)ccc4[C@H]3CC[C@@]21C", "phenotypically active": 0}
{"molecule": "O=C1CCc2ccc(OCCCCN3CCN(c4cccc(Cl)c4Cl)CC3)cc2N1", "phenotypically active": 0}
{"molecule": "CCOc1ccc2nc(S(N)(=O)=O)sc2c1 [ethoxzolamide]", "phenotypically active": 0}
{"molecule": "CCOC(=O)c1c2c3c(cccc3[nH]c1=O)C(=O)c1ccccc1-2", "phenotypically active": 1}
{"molecule": "COC(=O)c1c(C)cc(OC(=O)c2c(C)cc(O)c(C=O)c2O)c(C)c1O", "phenotypically active": 0}
{"molecule": "COc1cc(C)c(Sc2cnc(NC(=O)c3ccc(CNC(C)C(C)(C)C)cc3)s2)cc1C(=O)N1CCN(C(C)=O)CC1 (stereo unspecified)", "phenotypically active": 1}
{"molecule": "Cc1cccc(CN2CCN(C(c3ccccc3)c3ccc(Cl)cc3)CC2)c1 (stereo unspecified) [Meclizine dihydrochloride]", "phenotypically active": 0}
{"molecule": "CCCCOc1c(C(=O)c2c(F)cc(C)cc2F)cnc2[nH]ncc12", "phenotypically active": 1}
{"molecule": "N[C@@H](C(=O)O)c1ccc(C(=O)O)c(C(=O)O)c1", "phenotypically active": 0}
{"molecule": "Nc1nc(Cl)nc2c1ncn2[C@@H]1O[C@H](CO)[C@@H](O)[C@@H]1F", "phenotypically active": 1}
{"molecule": "CC[C@H](Nc1ncnc2[nH]cnc12)c1nc2cccc(F)c2c(=O)n1-c1ccccc1", "phenotypically active": 0}
{"molecule": "CC(C)[C@H]1CC[C@H](C(=O)N[C@H](Cc2ccccc2)C(=O)O)CC1 [nateglinide]", "phenotypically active": 0}
{"molecule": "CC(C)C(=O)SCCCCC[C@H](NC(=O)OC(C)(C)C)C(=O)NC12CC3CC(CC(C3)C1)C2", "phenotypically active": 0}
{"molecule": "CCN1C(=O)NC(c2ccccc2)C1=O (stereo unspecified)", "phenotypically active": 0}
{"molecule": "O=C1NC(=O)C(c2ccccc2)(c2ccccc2)N1", "phenotypically active": 0}
{"molecule": "COc1ccc(C2=N[C@H](c3ccc(Cl)cc3)[C@H](c3ccc(Cl)cc3)N2C(=O)N2CCNC(=O)C2)c(OC(C)C)c1", "phenotypically active": 0}
{"molecule": "FC(F)(F)c1ccc(/C=C/c2nc(COc3ccc(CCCCn4ccnn4)cc3)co2)cc1", "phenotypically active": 1}
